TEST_SYSTEM: human 5-HT7B (h5-HT7b) receptors (Homo sapiens)
Construct: expressed in transfected cells
Sequence (P34969 1-432 limits assumed): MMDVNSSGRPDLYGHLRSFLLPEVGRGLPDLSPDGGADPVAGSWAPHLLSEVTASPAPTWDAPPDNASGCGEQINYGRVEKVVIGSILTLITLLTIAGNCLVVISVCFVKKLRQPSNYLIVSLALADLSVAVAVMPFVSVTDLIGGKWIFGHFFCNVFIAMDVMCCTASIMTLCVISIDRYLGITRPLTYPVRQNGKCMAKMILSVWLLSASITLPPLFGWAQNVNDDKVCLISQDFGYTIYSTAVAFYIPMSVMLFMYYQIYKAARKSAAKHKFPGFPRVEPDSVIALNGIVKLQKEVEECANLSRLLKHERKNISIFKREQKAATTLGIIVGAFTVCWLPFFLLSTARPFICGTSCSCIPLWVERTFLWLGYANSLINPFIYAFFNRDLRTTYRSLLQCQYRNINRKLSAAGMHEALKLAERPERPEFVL
PROCEDURE_SUMMARY: Competition radioligand binding, h5-HT7b ([3H]5-CT)
TEST_CONTEXT: membranes of HEK 293 cells, 2 hr 37° C., read-out: Ki (nM) 5-HT7
Catalogue of compounds with associated Ki
ATTRIBUTE_MEASURED: Ki (nM)

COMPOUND: Cc1cc(CN(CC[C@@H]2CCCN2C)Cc2ccc(Cl)cc2)cc(C)c1O
TEST_SYSTEM: human 5-HT7B (h5-HT7b) receptors (Homo sapiens)
UNIT_ANNOTATION: nM
EXPERIMENTAL_RESULT: 4.2

COMPOUND: CN1CCC[C@H]1CCN(Cc1ccc(Cl)cc1)Cc1ccc(O)c(Cl)c1
TEST_SYSTEM: human 5-HT7B (h5-HT7b) receptors (Homo sapiens)
UNIT_ANNOTATION: nM
EXPERIMENTAL_RESULT: 2.7

COMPOUND: CN1CCC[C@H]1CCN(Cc1ccc(Cl)cc1)Cc1ccc(O)cc1Cl
TEST_SYSTEM: human 5-HT7B (h5-HT7b) receptors (Homo sapiens)
UNIT_ANNOTATION: nM
EXPERIMENTAL_RESULT: 0.91

COMPOUND: CN1CCC[C@@H]1CCN(Cc1cccc(O)c1)Cc1cccc(O)c1
TEST_SYSTEM: human 5-HT7B (h5-HT7b) receptors (Homo sapiens)
UNIT_ANNOTATION: nM
EXPERIMENTAL_RESULT: 1000

COMPOUND: CN1CCCC1CCN(Cc1ccccc1)Cc1c(Cl)cccc1Cl (stereo not drawn)
TEST_SYSTEM: human 5-HT7B (h5-HT7b) receptors (Homo sapiens)
UNIT_ANNOTATION: nM
EXPERIMENTAL_RESULT: 28

COMPOUND: COc1cc(CN(CC[C@@H]2CCCN2C)Cc2ccc(Cl)cc2)ccc1O
TEST_SYSTEM: human 5-HT7B (h5-HT7b) receptors (Homo sapiens)
UNIT_ANNOTATION: nM
EXPERIMENTAL_RESULT: 3.2

COMPOUND: CN1CCC[C@H]1CCN(Cc1cccc(C(N)=O)c1)Cc1cccc(C(N)=O)c1
TEST_SYSTEM: human 5-HT7B (h5-HT7b) receptors (Homo sapiens)
UNIT_ANNOTATION: nM
EXPERIMENTAL_RESULT: 5100

COMPOUND: Cc1cc(CN(CC[C@@H]2CCCN2C)Cc2ccc(Cl)cc2)oc1C
TEST_SYSTEM: human 5-HT7B (h5-HT7b) receptors (Homo sapiens)
UNIT_ANNOTATION: nM
EXPERIMENTAL_RESULT: 21

COMPOUND: Cc1ccc(CN(CCC2CCCN2C)Cc2ccc(C)cc2)cc1 (racemic)
TEST_SYSTEM: human 5-HT7B (h5-HT7b) receptors (Homo sapiens)
UNIT_ANNOTATION: nM
EXPERIMENTAL_RESULT: 9.9
